Test system: crabgrass
Test: Test B pre/postemergence crabgrass
Format: in vivo, Digitaria sanguinalis
Conditions: Preemergence, Rate 125 g/ha; scale of 0 to 10 where 0 is no effect and 10 is complete control
Form field: Crabgrass plant response rating (one value per entry).
OBSERVABLE: Crabgrass plant response rating

# COMPOUND, VALUE MEASURED
rows = [
    ("CCOC(Cn1c(=O)on(C(=O)N(c2ccc(F)cc2F)C(C)C)c1=O)OCC [Compound 630]", 8),
    ("CC(C)N(C(=O)n1oc(=O)n(CC(=O)C2CCC2)c1=O)c1ccc(F)cc1 [Compound 640]", 3),
    ("CC(C)N(C(=O)n1oc(=O)n(Cc2nnc(Cl)s2)c1=O)c1ccc(F)cc1F [Compound 645]", 3),
    ("CC(C)N(C(=O)n1oc(=O)n(Cc2nnc(Cl)s2)c1=O)c1ccc(Cl)cc1 [Compound 653]", 2),
    ("CC(C)N(C(=O)n1oc(=O)n(Cc2nnc(Cl)s2)c1=O)c1ccc(F)cc1 [Compound 646]", 0),
    ("CCOC(=O)CC(C(=O)OCC)n1c(=O)on(C(=O)N(c2ccc(F)cc2)C(C)C)c1=O (stereo not drawn) [Compound 615]", 0),
]

###

Tested on: wheat
Experiment: Test B pre/postemergence wheat
Assay type: in vivo, Triticum aestivum
Conditions: Rate 250 g/ha, Postemergence; scale 0 to 10, 0 is no effect, 10 is complete control
Form field: Wheat plant response rating (one value per entry).
OBSERVABLE: Wheat plant response rating

# COMPOUND, TARGET SYSTEM, VALUE MEASURED
records = [
    ("CC(C)N(C(=O)n1oc(=O)n(CC(F)F)c1=O)c1ccc(Cl)cc1", "wheat", 0),
    ("CCOP(=O)(Cn1c(=O)on(C(=O)N(c2ccc(F)cc2F)C(C)C)c1=O)OCC", "wheat", 2),
    ("COc1ccc(N(C(=O)n2oc(=O)n(C(C)C)c2=O)C(C)C)cc1", "wheat", 0),
    ("CC(C)N(C(=O)n1oc(=O)n(C(C)C2=NOCC2)c1=O)c1ccc(Cl)cc1 (racemic)", "wheat", 0),
    ("CC(C)N(C(=O)n1oc(=O)n(CC2=NOCCO2)c1=O)c1ccc(F)cc1F", "wheat", 5),
]

###

Form field: Plant response rating, Soybean (one value per entry).
System: soybean
Experiment: Test B pre/postemergence soybean
Format: in vivo, Glycine max
Conditions: Postemergence, Rate 500 g/ha; scale of 0 to 10 where 0 is no effect and 10 is complete control
OBSERVABLE: Plant response rating, Soybean

# COMPOUND, VALUE MEASURED
records = [
    ("CCOC(=O)CC(C(=O)OCC)n1c(=O)on(C(=O)N(c2ccc(F)cc2)C(C)C)c1=O (stereo not shown) [Compound 615]", 3),
    ("CC(C)N(C(=O)n1oc(=O)n(COCc2ccccc2)c1=O)c1ccccc1 [Compound 579]", 4),
    ("COCn1c(=O)on(C(=O)N(c2ccccc2)C(C)C)c1=O [Compound 562]", 5),
    ("CCCCn1c(=O)on(C(=O)N(c2ccccc2)C(C)C)c1=O [Compound 556]", 8),
]

###

Form field: Nutsedge plant response rating (one value per entry).
System: purple nutsedge
Experiment: Test B pre/postemergence purple nutsedge
Type: in vivo, Cyperus rotundus
Settings: Rate 250 g/ha, Postemergence; scale 0 to 10, 0 is no effect, 10 is complete control

# COMPOUND, TARGET SYSTEM, Nutsedge plant response rating
data = [
    ("CCOP(=O)(Cn1c(=O)on(C(=O)N(c2ccc(F)cc2F)C(C)C)c1=O)OCC [Compound 736]", "purple nutsedge", 0),
    ("CC(C)N(C(=O)n1oc(=O)n(CCCCCl)c1=O)c1ccc(F)cc1 [Compound 712]", "purple nutsedge", 0),
    ("CC(C)N(C(=O)n1oc(=O)n(CC(F)F)c1=O)c1ccc(Cl)cc1 [Compound 745]", "purple nutsedge", 0),
    ("CC(C)N(C(=O)n1oc(=O)n(CCCCl)c1=O)c1ccccc1 [Compound 750]", "purple nutsedge", 7),
    ("CC(C)N(C(=O)n1oc(=O)n(CC2=NOCCO2)c1=O)c1ccc(F)cc1F [Compound 758]", "purple nutsedge", 0),
    ("CC(C)N(C(=O)n1oc(=O)n(CF)c1=O)c1ccc(F)cc1 [Compound 709]", "purple nutsedge", 0),
]
